experimental_system: hAT1R (Homo sapiens, UniProt P30556)
Sequence (P30556 1-359): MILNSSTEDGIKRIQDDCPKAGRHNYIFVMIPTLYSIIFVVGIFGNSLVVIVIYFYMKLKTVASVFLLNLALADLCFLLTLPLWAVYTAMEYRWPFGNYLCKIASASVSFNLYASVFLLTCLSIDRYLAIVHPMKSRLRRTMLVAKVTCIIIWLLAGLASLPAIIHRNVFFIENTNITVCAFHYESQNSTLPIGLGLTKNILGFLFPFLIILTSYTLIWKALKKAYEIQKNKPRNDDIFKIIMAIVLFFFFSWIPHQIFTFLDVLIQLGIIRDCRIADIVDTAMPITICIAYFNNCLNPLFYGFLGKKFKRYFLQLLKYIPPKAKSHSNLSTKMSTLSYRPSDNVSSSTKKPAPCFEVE
protocol_summary: cell-based
conditions: Low AT1R Expression
assay_endpoint: BRET β-Arrestin2 Low AT1R Expression Ymax (%)
Provide a numeric answer, followed by its unit.

> print(dat)
                                   compound  data.value
1  CCCCC1=NC2(CCCC2)C(=O)N1Cc1ccc(-c2cc(-c3ccc(C)cc3)ccc2-c2nn[nH]n2)cc1       31.6%

Give BRET β-Arrestin2 Low AT1R Expression Ymax (%) for each of the items listed below.
1. CCc1nc2c(C)cc(C)nc2n1Cc1ccc(-c2cc(C3CCCC3)ccc2-c2nn[nH]n2)cc1
2. CCc1nc2c(C)cc(C)nc2n1Cc1ccc(-c2cc(N3CCCC(F)(F)C3)ccc2-c2nn[nH]n2)cc1

29.8%
43.1%

Give BRET β-Arrestin2 Low AT1R Expression Ymax (%) for each of the items listed below.
1. CCc1nc2c(C)cc(C)nc2n1Cc1ccc(-c2cc(-c3ccccc3O)ccc2-c2nn[nH]n2)cc1
2. CCc1nc2c(C)cc(C)nc2n1Cc1ccc(-c2cc(C3CCCOC3)ccc2-c2nn[nH]n2)cc1 (centres unmarked)
3. CCc1nc2c(C)cc(C)nc2n1Cc1ccc(-c2cc(-c3ccccc3)ccc2-c2nn[nH]n2)cc1
4. CCc1nc2c(C)cc(C)nc2n1Cc1ccc(-c2cc(-c3cccc(OC)c3)ccc2-c2nn[nH]n2)cc1
5. CCc1nc2c(C)cc(C)nc2n1Cc1ccc(-c2cc(-c3cncc(C)c3)ccc2-c2nn[nH]n2)cc1

1. 86.8%
2. 21.1%
3. 69.3%
4. 59.5%
5. 39.4%

Give BRET β-Arrestin2 Low AT1R Expression Ymax (%) for each of the items listed below.
1. CCc1nc2c(C)cc(C)nc2n1Cc1ccc(-c2cc(-c3ccc(C(=O)N(C)C)cc3)ccc2-c2nn[nH]n2)cc1
2. CCc1nc2c(C)cc(C)nc2n1Cc1ccc(-c2cc(-c3ccccc3)ccc2-c2noc(=O)[nH]2)cc1
3. CCc1nc2c(C)cc(C)nc2n1Cc1ccc(-c2cc(-c3cc(C)c(F)cn3)ccc2-c2nn[nH]n2)cc1
4. CCCCC1=NC2(CCOC2)C(=O)N1Cc1ccc(-c2cc(-c3ccccc3)ccc2-c2nnn[nH]2)cc1 (single isomer, unassigned) [Example 146]
5. CCc1nc2c(C)cc(C)nc2n1Cc1ccc(-c2cc(-n3cccn3)ccc2-c2nn[nH]n2)cc1
6. CCc1nc2c(C)cc(C)nc2n1Cc1ccc(-c2cc(-c3cccc(OC)n3)ccc2-c2nn[nH]n2)cc1

1: 16.9%; 2: 80.9%; 3: 39.4%; 4: 35.0%; 5: 10.1%; 6: 42.2%

###

experimental_system: hAT1R (Homo sapiens, UniProt P30556)
Sequence (P30556 1-359): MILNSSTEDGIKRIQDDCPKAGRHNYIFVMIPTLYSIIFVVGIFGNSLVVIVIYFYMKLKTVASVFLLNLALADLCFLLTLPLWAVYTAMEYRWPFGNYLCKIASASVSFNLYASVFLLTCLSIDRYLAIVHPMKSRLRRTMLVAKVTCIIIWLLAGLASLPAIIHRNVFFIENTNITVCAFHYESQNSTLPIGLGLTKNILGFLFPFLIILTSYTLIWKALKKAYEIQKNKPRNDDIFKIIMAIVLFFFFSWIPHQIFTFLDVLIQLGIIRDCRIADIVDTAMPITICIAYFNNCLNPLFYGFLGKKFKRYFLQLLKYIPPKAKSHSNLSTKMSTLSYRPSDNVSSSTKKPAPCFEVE
protocol_summary: cell-based
conditions: agonist mode; read-out: BRET P63 EC50
Mark rule met only when EC50 stays strictly below 8 nM. Values equal to the cut-off are rule not met.

> print(dat)
                                   molecule   label.class
1  CCOc1nc2cccc(C(=O)O)c2n1Cc1ccc(-c2cc(-n3ncc4ccccc43)ccc2-c2nn[nH]n2)cc1 [Example 342]      rule met
2  CCc1nc2c(C)cc(C)nc2n1Cc1ccc(-c2cc(-c3ccccc3)ccc2-c2nn[nH]n2)c(F)c1 [Example 265]      rule met
3  Cc1ccnc(-c2ccc(-c3nn[nH]n3)c(-c3ccc(CN4C(=O)C5(CCCC5)N=C4C(C)C)cc3)c2)c1 [Example 118]  rule not met
4  CCCCC(=O)N(Cc1ccc(-c2cc(N3CCCC(C)C3)ccc2-c2nn[nH]n2)cc1)[C@H](C(=O)O)C(C)C (some centres unmarked) [Example 448]  rule not met
5  CCc1nc2c(C)cc(C)nc2n1Cc1ccc(-c2cc(-n3cc(C4CCCC4)nn3)ccc2-c2nnn[nH]2)cc1 [Example 230]  rule not met

In plain terms, does CCCc1nc(CC)c(C(=O)O)n1Cc1ccc(-c2cc(-c3ccccc3)ccc2-c2nn[nH]n2)cc1 [Example 396] come in under 8 nM for EC50?
rule not met

Also need CCOc1nc2cccc(C(=O)O)c2n1Cc1ccc(-c2cc(-c3cc(OC)ccn3)ccc2-c2nn[nH]n2)cc1 [Example 310] , thanks.
rule met

Also need CCC1=NC2(CCOC2)C(=O)N1Cc1ccc(-c2cc(-c3cccc(C)c3)ccc2-c2nnn[nH]2)cc1 (single isomer, unassigned) [Example 166] , thanks.
rule not met

Also need CCc1nc2c(C)cc(C)nc2n1Cc1ccc(-c2cc(-n3cccn3)ccc2-c2nn[nH]n2)cc1 [Example 25] , thanks.
rule not met

Also need CCc1nc2c(C)cc(C)nc2n1Cc1ccc(-c2cc(-c3ccccc3)ccc2-c2n[nH]c(=S)o2)cc1 [Example 246] , thanks.
rule not met

Also need CCc1nc2c(C)cc(C)nc2n1Cc1ccc(-c2cc(-c3cccc(C)c3)ccc2-c2nn[nH]n2)cc1 [Example 8] , thanks.
rule met

Also need CCCCC1=NC2(CCCC2)C(=O)N1Cc1ccc(-c2cc(-c3cc(C)ccn3)ccc2-c2nn[nH]n2)cc1 [Example 139] , thanks.
rule not met

Also need CCc1nc2c(C)cc(C)nc2n1Cc1ccc(-c2cc(-c3cn(CCO)nn3)ccc2-c2nnn[nH]2)cc1 [Example 235] , thanks.
rule not met

Also need CCc1nc2c(C)cc(C)nc2n1Cc1ccc(-c2cc(-c3cc(C)c(F)cn3)ccc2-c2nn[nH]n2)cc1 [Example 66] , thanks.
rule not met

###

experimental_system: hAT1R (Homo sapiens)
Sequence (P30556 1-359): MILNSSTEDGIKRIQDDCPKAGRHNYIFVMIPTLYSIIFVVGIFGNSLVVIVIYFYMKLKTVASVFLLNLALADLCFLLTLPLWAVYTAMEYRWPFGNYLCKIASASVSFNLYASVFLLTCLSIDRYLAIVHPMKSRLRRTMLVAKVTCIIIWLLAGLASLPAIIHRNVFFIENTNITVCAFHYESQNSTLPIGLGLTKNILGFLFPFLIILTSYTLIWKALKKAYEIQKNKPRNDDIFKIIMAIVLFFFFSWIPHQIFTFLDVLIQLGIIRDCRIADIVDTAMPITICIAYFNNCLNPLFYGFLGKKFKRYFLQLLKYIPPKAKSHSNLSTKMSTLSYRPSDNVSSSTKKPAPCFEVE
protocol_summary: BRET β-arrestin2 biosensor assay, higher receptor expression (hAT1R 5 ng/well), HEK293 cells
Assay type: cell-based
What BRET β-Arrestin2 High AT1R Expression Ymax (%) was measured for each of the following?
Give bare numbers, in %.

> print(dat)
                              smiles.record  value.units  data.value
1  CCc1nc2c(C)cc(C)nc2n1Cc1ccc(-c2cc(Oc3ccccc3)ccc2-c2nnn[nH]2)cc1            %        85.9
2  CCCCOC(=O)NS(=O)(=O)c1sc(-c2cccnc2OC)cc1-c1ccc(Cn2c(CC)nc3c(C)cc(C)nc32)cn1            %        43.8
3  CCCCC(=O)N(Cc1ccc(-c2cc(-c3cc(F)cc(F)c3)ccc2-c2nn[nH]n2)cc1)[C@H](C(=O)O)C(C)C            %        74.6
4  CCc1nc2c(C)cc(C)nc2n1Cc1ccc(-c2cc(-c3ccccc3O)ccc2C(=O)O)cc1            %        85.9
5  CCCc1nc(C(C)(C)O)c(C(=O)OCC)n1Cc1ccc(-c2cc(-c3ccccc3)ccc2-c2nn[nH]n2)cc1            %        74.5

Give BRET β-Arrestin2 High AT1R Expression Ymax (%) for each of the items listed below.
1. CCCCC(=O)N(Cc1ccc(-c2cc(-c3cnn(C)c3)ccc2-c2nn[nH]n2)cc1)[C@H](C(=O)O)C(C)C
2. CCCc1nc(CC)c(C(=O)O)n1Cc1ccc(-c2cc(-c3ccccc3)ccc2C(=O)O)cc1

1: 17.2; 2: 88.3
